Recorded values, source patent US10940139B2.

# Assay System: KRas G12C mutant (Homo sapiens (Human), UniProt P01116, G12C)
# Sequence (P01116-2 other isoform, or with tags, fused parts or gaps G12C): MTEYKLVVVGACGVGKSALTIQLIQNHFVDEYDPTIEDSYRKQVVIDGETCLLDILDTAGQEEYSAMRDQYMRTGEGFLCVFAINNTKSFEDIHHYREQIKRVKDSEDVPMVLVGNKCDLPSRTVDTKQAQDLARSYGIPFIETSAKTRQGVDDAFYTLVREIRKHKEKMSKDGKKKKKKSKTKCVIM
# Assay Protocol: Ras GTP binding domain inhibition assay (labeled GTP)
# Reported Conditions: 20 μM compound; KRas G12C; read-out: % Inhibition at 20 μM of K-Ras mutant and wild-type protein, KRas G12C
Below: a set of entries, each annotated with reported inhibition at 20 µM.

{"columns": ["Compound", "Endpoint", "Obs Value"],
 "data": [
  ["Cc1sc2c(O)nc(-c3ccccn3)nc2c1C(=O)N1CCN(c2ccccc2)CC1C (stereo not shown) [drawing 3509]", "inhibition at 20 µM", "51 to 75%"]
]}

Inquiry: # get_value(readout='inhibition at 20 µM', item= Cc1sc2c(O)nc(-c3ccccn3)nc2c1C(=O)N1CCN(Cc2cccc(O)c2)CC1 [drawing 3510] )
Reply text: 1 to 25%

Inquiry: # get_value(readout='inhibition at 20 µM', item= COCCNc1nc(-c2ccccn2)nc2sc(-c3ccccc3)c(-c3ccccn3)c12 [drawing 3620] )
Reply text: 1 to 25%

Inquiry: # get_value(readout='inhibition at 20 µM', item= CC(C)Cc1csc2c(O)nc(-c3ccccn3)nc12 [drawing 3494] )
Reply text: 25 to 50%

----------
# Assay System: KRas G12D/Q61H double mutant (Homo sapiens (Human), UniProt P01116, G12D/Q61H)
# Sequence (P01116-2 other isoform, or with tags, fused parts or gaps G12D/Q61H): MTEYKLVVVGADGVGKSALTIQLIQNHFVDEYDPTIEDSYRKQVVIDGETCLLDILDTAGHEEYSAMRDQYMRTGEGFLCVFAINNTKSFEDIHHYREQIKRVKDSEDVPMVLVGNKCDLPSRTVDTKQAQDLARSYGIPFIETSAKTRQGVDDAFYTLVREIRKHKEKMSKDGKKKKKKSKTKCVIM
# Assay Protocol: Ras GTP binding domain inhibition assay (labeled GTP)
# Reported Conditions: 20 μM compound; read-out: % Inhibition at 20 μM KRas G12D Q61H
# Description: Buffer-I: • 50 mM Tris, pH 7.5 • 150 mM NaCl (optional) • 1 mM MgCl2 • 1 mM DTT. • KRas G12D mutant protein was expressed as a His-tagged protein. […] Then 22 μl of Cy3-GTP or Cy5-GTP was added to each well. The labeled GTP was incubated for 45 min. at room temperature. • Following GTP incubation, wells were washed 3× in Buffer-I, and 200 μl of Buffer-I were added to each well. • Following washes, the amount of bound labeled-GTP was measured with an Eppendorf AF2200 plate reader. […]
Endpoint: inhibition at 20 µM

{"columns": ["Molecule", "inhibition at 20 µM"],
 "data": [
  ["Cc1cnc(-c2ccccn2)nc1NC(=O)Cc1ccc(C#N)cc1 [drawing 2814]", "1 to 25%"],
  ["Cc1ccccc1N1CCN(C(=O)c2csc3c(O)nc(-c4ccccn4)nc23)CC1 [drawing 2723]", "25 to 50%"],
  ["CCc1cc(NNC(=O)C2CC2)nc(-c2ccccn2)n1", "1 to 25%"]
]}

From here, focus on the item given below.
Inquiry: # get_value(readout='inhibition at 20 µM', item= N#Cc1cccc(CCNC(=O)c2csc3nc(-c4ccccn4)nc(N4CCOCC4)c23)c1 [drawing 2787] )
Reply text: 1 to 25%

----------
# Assay System: KRas G12C/Q61H double mutant (Homo sapiens (Human), UniProt P01116, G12C/Q61H)
# Sequence (P01116-2 other isoform, or with tags, fused parts or gaps G12C/Q61H): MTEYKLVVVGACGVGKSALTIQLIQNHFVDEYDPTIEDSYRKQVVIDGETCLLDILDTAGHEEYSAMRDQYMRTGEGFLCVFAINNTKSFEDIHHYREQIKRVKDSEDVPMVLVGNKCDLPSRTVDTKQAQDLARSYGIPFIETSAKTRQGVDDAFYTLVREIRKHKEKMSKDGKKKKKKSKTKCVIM
# Assay Protocol: Ras GTP binding domain inhibition assay (labeled GTP)
# Reported Conditions: 20 μM compound; read-out: % Inhibition at 20 μM KRas G12C Q61H
Endpoint: inhibition at 20 µM

Here are 5 compounds together with their reported answers.
{"columns": ["Compound", "inhibition at 20 µM"],
 "data": [
  ["O=C(c1csc2c(O)nc(-c3ccccn3)nc12)N1CCNC(Cc2ccccc2)C1 (stereo not drawn) [drawing 2778]", "51 to 75%"],
  ["CNS(=O)(=O)CCCNC(=O)c1csc2nc(-c3ccccn3)nc(N3CCOCC3)c12 [drawing 2791]", "25 to 50%"],
  ["O=C(c1csc2c(O)nc(-c3ccccn3)nc12)N1CCNC(c2ccccc2F)C1 (stereo not drawn) [drawing 2776]", "51 to 75%"],
  ["Oc1nc(-c2ccccn2)nc2c(-c3ccsc3)csc12 [drawing 2875]", "25 to 50%"],
  ["Cc1cc2nc(-c3ccccn3)nc(N)c2s1 [drawing 2836]", "51 to 75%"]
]}

Inquiry: # get_value(readout='inhibition at 20 µM', item= Oc1nc(-c2ccccn2)nc2c(-c3ccccc3C(F)F)csc12 [drawing 2883] )
Reply text: 51 to 75%

Inquiry: # get_value(readout='inhibition at 20 µM', item= COc1ccc(-c2csc3c(O)nc(-c4ccccn4)nc23)c(C)c1 [drawing 2881] )
Reply text: 51 to 75%

Inquiry: # get_value(readout='inhibition at 20 µM', item= Cc1cnc(-c2ccccn2)nc1NC(=O)C1CCCc2cc(C#N)ccc21 (stereo not drawn) [drawing 2827] )
Reply text: 51 to 75%

Inquiry: # get_value(readout='inhibition at 20 µM', item= Oc1nc(-c2ccccn2)nc2c(-c3cc(Cl)cc(Cl)c3)csc12 [drawing 2848] )
Reply text: 1 to 25%

Inquiry: # get_value(readout='inhibition at 20 µM', item= N#Cc1ccc(CCNC(=O)c2csc3nc(-c4ccccn4)nc(N4CCOCC4)c23)cc1 [drawing 2750] )
Reply text: 1 to 25%

Inquiry: # get_value(readout='inhibition at 20 µM', item= Oc1nc(-c2ccccn2)nc2c(-c3ccccc3Cl)csc12 [drawing 2695] )
Reply text: 51 to 75%
